Taken from patent US20210380680A1.

Would you kindly list % specific cytotoxicity @ 6.67 nM, NUGC4-CLDN18.2, PBMC for each of these binders?
Study system: human Claudin 18.2 (CLDN18.2) (human, UniProt P56856-2 1-261)
Assay method text: cell-based or functional assay
Numbers only, in %.

Example binders with recorded % specific cytotoxicity @ 6.67 nM, NUGC4-CLDN18.2, PBMC:
Binder: 413H9F8-cp1 (antibody, V domains shown, humanized IgG; constant regions not specified) VH: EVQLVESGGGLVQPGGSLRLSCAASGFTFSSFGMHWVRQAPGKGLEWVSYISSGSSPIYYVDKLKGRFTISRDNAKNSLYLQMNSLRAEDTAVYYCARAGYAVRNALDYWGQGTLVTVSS VL: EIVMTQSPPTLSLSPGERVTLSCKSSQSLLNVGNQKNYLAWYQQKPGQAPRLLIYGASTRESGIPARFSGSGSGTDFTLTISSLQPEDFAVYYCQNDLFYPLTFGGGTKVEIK
Result number: 31.5

Binder: 364D1A7-H4L1 (antibody, V domains shown, humanized IgG; constant regions not specified; also called 364D1A7-H41L) VH: DVQLVESGGGLVQPGGSLRLSCAASGFTFSSFGMHWVRQAPGKGLEWVAYISSGSGSIYYADTVKGRFTLSRDNPKNTLYLQMNSLRAEDTAVYYCATSYYYGNALEYWGQGTTVTVSS VL: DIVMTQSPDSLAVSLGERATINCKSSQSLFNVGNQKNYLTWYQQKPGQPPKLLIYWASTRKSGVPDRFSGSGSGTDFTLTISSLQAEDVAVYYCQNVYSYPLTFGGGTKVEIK
Result number: 26.4

Turning now to a further record.
response.value for 364D1A7-H4L5 (antibody, V domains shown, humanized IgG; constant regions not specified) VH: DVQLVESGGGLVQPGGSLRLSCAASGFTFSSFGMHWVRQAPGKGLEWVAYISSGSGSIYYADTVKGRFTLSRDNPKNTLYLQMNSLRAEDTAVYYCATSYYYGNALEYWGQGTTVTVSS VL: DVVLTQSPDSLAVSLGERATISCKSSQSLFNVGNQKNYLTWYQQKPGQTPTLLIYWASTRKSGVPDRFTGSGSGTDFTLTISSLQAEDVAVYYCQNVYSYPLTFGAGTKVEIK (field: % specific cytotoxicity @ 6.67 nM, NUGC4-CLDN18.2, PBMC) = 26.4
